The origin of these recorded values is patent US8349870B2.

- System: Phytophthora infestans
- Format: in vivo
- Stated Conditions: tomato late blight, sprayed 17 h after inoculation; "*" compound tested at 40 ppm
Quantity Measured: Test C rating (% disease control) (%)
Give your result in % as a bare value.

Solved cases (5 shown):
CONC(=Nc1cc(C)ccc1C)N1CCC(c2nc(C3=NOC(c4c(F)cccc4F)C3)cs2)CC1 (centres unmarked) ... 97
CCC(=O)C(=O)N1CCC(c2nc(C3=NOC(c4c(F)cccc4F)C3)cs2)CC1 (centres unmarked) ... 99
Cc1ccc(C)c(N=C(NO)N2CCC(c3nc(C4=NOC(c5c(F)cccc5F)C4)cs3)CC2)c1 (centres unmarked) ... 99
O=C(C(O)C(F)(F)F)N1CCC(c2nc(C3=NOC(c4c(F)cccc4F)C3)cs2)CC1 (centres unmarked) ... 95
Cc1ccc(C)c(N=C(N)N2CCC(c3nc(C4=NOC(c5c(F)cccc5F)C4)cs3)CC2)c1 (centres unmarked) ... 97

The molecule CC(=O)NC(=Nc1cc(C)ccc1C)N1CCC(c2nc(C3=NOC(c4ccccc4)C3)cs2)CC1 (centres unmarked) , tested on Phytophthora infestans, showed Test C rating (% disease control) of 58

Result for Cc1cc(C)c(C(=O)C(=O)N2CCC(c3nc(C4=NOC(c5ccccc5F)C4)cs3)CC2)c(C)c1 (centres unmarked) , tested on Phytophthora infestans, Test C rating (% disease control): 0

Phytophthora infestans data for CCC(O)C(=O)N1CCC(c2nc(C3=NOC(c4c(F)cccc4F)C3)cs2)CC1 (centres unmarked) ; its Test C rating (% disease control): 91

---

- System: Phytophthora infestans
- Format: in vivo
- Stated Conditions: tomato late blight, sprayed 17 h after inoculation; "*" compound tested at 40 ppm
Quantity Measured: Test C rating (% disease control) (%)
Give the quantity in %, number only.

CC(C)CC(=O)C(=O)N1CCC(c2nc(C3=NOC(c4c(F)cccc4F)C3)cs2)CC1 (stereo not shown) ... 64
CC(=O)C(=O)N1CCC(c2nc(C3=NOC(c4c(F)cccc4F)C3)cs2)CC1 (stereo not shown) ... 99
Cc1ccc(C)c(C(=O)NC(=O)N2CCC(c3nc(C4=NOC(c5ccccc5F)C4)cs3)CC2)c1 (stereo not shown) ... 0

Turning now to a further record.
Field Test C rating (% disease control) (Phytophthora infestans), entry Cc1ccc(C)c(N=C(N2CCOCC2)N2CCC(c3nc(C4=NOC(c5ccccc5)C4)cs3)CC2)c1 (stereo not shown) : 17

---

Catalogue of Test B rating (% disease control) values
- Test system: Phytophthora infestans
- Type: in vivo
- Stated Conditions: tomato late blight, sprayed the day before inoculation; "*" compound tested at 40 ppm
Write the answer as a number in %, unit excluded.

Illustrative cases are given below, each with its answer.
O=C(C(=O)N1CCC(c2nc(C3=NOC(c4ccccc4F)C3)cs2)CC1)c1cccs1 (stereo not shown) ... 0
CC(=O)NC(=Nc1cc(C)ccc1C)N1CCC(c2nc(C3=NOC(c4ccccc4)C3)cs2)CC1 (stereo not shown) ... 99
O=C(NCC1CCCCC1)N1CCC(c2nc(C3=NOC(c4ccccc4)C3)cs2)CC1 (stereo not shown) ... 100
CCONC(=Nc1cc(C)ccc1C)N1CCC(c2nc(C3=NOC(c4c(F)cccc4F)C3)cs2)CC1 (stereo not shown) ... 100
CC(C)CC(O)C(=O)N1CCC(c2nc(C3=NOC(c4c(F)cccc4F)C3)cs2)CC1 (mixture of isomers) [compound 56] ... 84
CC(=O)C(=O)N1CCC(c2nc(C3=NOC(c4c(F)cccc4F)C3)cs2)CC1 (stereo not shown) ... 100
CNC(=Nc1cc(C)ccc1C)N1CCC(c2nc(C3=NOC(c4ccccc4)C3)cs2)CC1 (stereo not shown) ... 95
CCOC(=O)CNC(=O)N1CCC(c2nc(C3=NOC(c4ccccc4)C3)cs2)CC1 (stereo not shown) ... 63
Cc1ccc(C)c(S(=O)(=O)NC(=O)N2CCC(c3nc(C4=NOC(c5ccccc5)C4)cs3)CC2)c1 (stereo not shown) ... 0
CCC(C)C(=O)C(=O)N1CCC(c2nc(C3=NOC(c4c(F)cccc4F)C3)cs2)CC1 (stereo not shown) ... 100

Entry CNC(=Nc1cc(C)ccc1C)N1CCC(c2nc(C3=NOC(c4c(F)cccc4F)C3)cs2)CC1 (stereo not shown) — recorded Test B rating (% disease control) = 86

So for O=C(C(=O)N1CCC(c2nc(C3=NOC(c4ccccc4F)C3)cs2)CC1)c1ccccc1 (stereo not shown) , the logged Test B rating (% disease control) turned out to be 0

Measured Test B rating (% disease control) of CCCCCCC(=O)N1CCC(c2nc(C3=NOC(c4c(F)cccc4F)C3)cs2)CC1 (stereo not shown) : 100

Just so you know, measured Test B rating (% disease control) for Cc1ccc(C)c(N=C(N)N2CCC(c3nc(C4=NOC(c5c(F)cccc5F)C4)cs3)CC2)c1 (stereo not shown) came out at 100

Test B rating (% disease control) recorded for this molecule, Cc1ccc(C)c(C(=O)C(=O)N2CCC(c3nc(C4=NOC(c5ccccc5F)C4)cs3)CC2)c1 (stereo not shown) , is 100

Entry O=C(C(O)C(F)(F)F)N1CCC(c2nc(C3=NOC(c4c(F)cccc4F)C3)cs2)CC1 (stereo not shown) , Test B rating (% disease control) reported as 100

---

- System: Phytophthora infestans
- Assay type: in vivo
- Stated Conditions: tomato late blight, sprayed 17 h after inoculation; "*" compound tested at 40 ppm
Quantity Measured: Test C rating (% disease control) (%)
Answer format: numeric, % implied, no suffix.

Solved entries:
O=C(C(=O)N1CCC(c2nc(C3=NOC(c4ccccc4F)C3)cs2)CC1)c1ccccc1 (stereo not shown) ... 0
Cc1ccc(C)c(S(=O)(=O)NC(=O)N2CCC(c3nc(C4=NOC(c5ccccc5)C4)cs3)CC2)c1 (stereo not shown) ... 0
O=C(C(=O)N1CCC(c2nc(C3=NOC(c4c(F)cccc4F)C3)cs2)CC1)c1ccco1 (stereo not shown) ... 99
CNC(=Nc1cc(C)ccc1C)N1CCC(c2nc(C3=NOC(c4c(F)cccc4F)C3)cs2)CC1 (stereo not shown) ... 26
CCC(C)C(=O)C(=O)N1CCC(c2nc(C3=NOC(c4c(F)cccc4F)C3)cs2)CC1 (stereo not shown) ... 88

Measured Test C rating (% disease control) for this entry O=C(C(=O)N1CCC(c2nc(C3=NOC(c4ccccc4F)C3)cs2)CC1)c1cccs1 (stereo not shown) on Phytophthora infestans: 0

Entry CCOC(=Nc1cc(C)ccc1C)N1CCC(c2nc(C3=NOC(c4ccccc4)C3)cs2)CC1 (stereo not shown) , tested on Phytophthora infestans, has a reported Test C rating (% disease control) of 80

The molecule CCC(C)NC(=O)N1CCC(c2nc(C3=NOC(c4ccccc4)C3)cs2)CC1 (stereo not shown) on Phytophthora infestans: Test C rating (% disease control) was 95

Item O=C(C(=O)N1CCC(c2nc(C3=NOC(c4ccccc4F)C3)cs2)CC1)c1ccco1 (stereo not shown) ; assay system Phytophthora infestans; Test C rating (% disease control) reported as 0

Item CC(=O)OCC(=O)N1CCC(c2nc(C3=NOC(c4c(F)cccc4F)C3)cs2)CC1 (stereo not shown) was tested on Phytophthora infestans; the reported Test C rating (% disease control) is 68

The value of Test C rating (% disease control) recorded for Cc1ccc(C)c(N=C(N(C)C)N2CCC(c3nc(C4=NOC(c5c(F)cccc5F)C4)cs3)CC2)c1 (stereo not shown) when tested on Phytophthora infestans reads 0

Short answer on Phytophthora infestans for CCOC(=O)CNC(=O)N1CCC(c2nc(C3=NOC(c4ccccc4)C3)cs2)CC1 (stereo not shown) , Test C rating (% disease control): 26

Record for Cc1ccc(C)c(C(=O)C(=O)N2CCC(c3nc(C4=NOC(c5ccccc5F)C4)cs3)CC2)c1 (stereo not shown) under target or system Phytophthora infestans: Test C rating (% disease control) reported as 98

Known value: Phytophthora infestans Test C rating (% disease control) of the molecule CC(C)CC(O)C(=O)N1CCC(c2nc(C3=NOC(c4c(F)cccc4F)C3)cs2)CC1 (stereo not shown) [compound 57] equals 97

Here O=C(NC1CCCC1)N1CCC(c2nc(C3=NOC(c4ccccc4)C3)cs2)CC1 (stereo not shown) was tested on Phytophthora infestans, and its Test C rating (% disease control) came to 63

Note to self: Test C rating (% disease control) of CC(C)CC(O)C(=O)N1CCC(c2nc(C3=NOC(c4c(F)cccc4F)C3)cs2)CC1 (mixture of isomers) [compound 56] with Phytophthora infestans was 50

---

- Test system: Phytophthora infestans
- Format: in vivo
- Stated Conditions: tomato late blight, sprayed 17 h after inoculation; "*" compound tested at 40 ppm
# Test C rating (% disease control) listing for each entry below
Dear colleague, please return just the value in %, with no unit written.

// solved cases for Test C rating (% disease control) follow
CCCC(=O)C(=O)N1CCC(c2nc(C3=NOC(c4c(F)cccc4F)C3)cs2)CC1 (stereo not drawn) ... 99
Cc1cc(C(F)(F)F)nn1C(=O)C(=O)N1CCC(c2nc(C3=NOC(c4c(F)cccc4F)C3)cs2)CC1 (stereo not drawn) ... 0

Test C rating (% disease control) in this record for Cc1cc(C(F)(F)F)nn1C(=O)C(=O)N1CCC(c2nc(C3=NOC(c4ccccc4F)C3)cs2)CC1 (stereo not drawn) : 0

For reference, reported Test C rating (% disease control) for CCCCCCC(=O)N1CCC(c2nc(C3=NOC(c4c(F)cccc4F)C3)cs2)CC1 (stereo not drawn) stands at 99
